- target-under-test: Acireductone dioxygenase (Homo sapiens, UniProt Q9BV57)
- Sequence (Q9BV57 whole entry): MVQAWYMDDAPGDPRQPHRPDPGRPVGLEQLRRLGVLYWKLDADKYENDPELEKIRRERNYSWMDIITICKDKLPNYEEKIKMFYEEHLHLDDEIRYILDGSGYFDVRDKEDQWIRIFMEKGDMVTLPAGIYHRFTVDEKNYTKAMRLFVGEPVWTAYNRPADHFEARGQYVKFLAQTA
- experiment-summary: Binding affinity to ADL1 in human HepG2 assessed as intensity fold change of cumulated normalized intensity of protein between capture and competition assay at 100 uM after 1 hr in presence of active Tcp-CC-13 by differential competition capture compound mass spectrometry
- Type: ADME
Measured fold change (FC) by item

INPUT: # query: fold change (FC) of entry `CCN1C(=O)S/C(=C/c2cc(O)c(O)c([N+](=O)[O-])c2)C1=O`
OUTPUT: 4.29

More entries:
INPUT: # query: fold change (FC) of entry `CCN(CC)C(=O)c1cc2cc(O)c(O)c([N+](=O)[O-])c2cc1C(=O)N(CC)CC`
OUTPUT: 3.67

INPUT: # query: fold change (FC) of entry Cc1ccc(C(=O)c2cc(O)c(O)c([N+](=O)[O-])c2)cc1 [TOLCAPONE]
OUTPUT: 7.59

INPUT: # query: fold change (FC) of entry CCN(CC)C(=O)/C(C#N)=C/c1cc(O)c(O)c([N+](=O)[O-])c1 [ENTACAPONE]
OUTPUT: 2.38
